assay: Cytotoxicity against human HepG2 cells assessed as reduction in cell viability after 48 hrs by MTT assay; format: toxicity, cell-based; conditions: read-out: TC50
measure_name: CC50 at 48 h

* O=S(=O)(c1ccc(-c2ccc3nccc(Nc4ccnnc4)c3c2)cc1)N1CCOCC1 | > 20 µM
* Fc1cccc(COc2ccc(Nc3ncnc4ccc(-c5cccc(N6CCOCC6)c5)cc34)cc2Cl)c1 | > 20 µM
* O=S(=O)(c1ccc(-c2ccc3nccc(Nc4ccc(OCc5cccc(F)c5)cc4)c3c2)cc1)N1CCOCC1 | > 5 µM
* COc1ncc(Nc2ccnc3ccc(-c4ccc(S(=O)(=O)N5CCOCC5)cc4)cc23)cn1 | > 20 µM
* O=S(=O)(c1ccc(-c2ccc3ncnc(Nc4ccc(OCc5cccc(F)c5)cc4)c3c2)cc1)N1CCOCC1 | > 20 µM
* O=S(=O)(c1ccc(-c2ccc3nccc(Nc4ccccn4)c3c2)cc1)N1CCOCC1 | > 20 µM
* COc1ccc(Nc2ccnc3ccc(-c4ccc(S(=O)(=O)N5CCOCC5)cc4)cc23)cc1Cl | > 20 µM
* O=S(=O)(c1ccc(-c2ccc3nccc(Nc4ncc(Cl)cn4)c3c2)cc1)N1CCOCC1 | > 20 µM
* Cc1cc(Nc2ccnc3ccc(-c4ccc(S(=O)(=O)N5CCOCC5)cc4)cc23)on1 | > 20 µM
* COc1ccc(Nc2ccnc3ccc(-c4ccc(S(=O)(=O)N5CCOCC5)cc4)cc23)cc1C | 9 µM
* Cc1nnc(Nc2ccnc3ccc(-c4ccc(S(=O)(=O)N5CCOCC5)cc4)cc23)nc1C | > 20 µM
